Assay: small-molecule microarray binders of probe aCHRDL2, primary screen, biochemical, biotinylated probe, 635/667 nm fluorescence (AID 1100)
Conditions: higher = more signal
Could you please report measured composite z-score for the items listed next?
Answers are plain numbers.

Example compounds with recorded composite z-score:
>>> value_measured("CC(=O)NCCCC[C@@H]1NC(=O)[C@H]2C[C@@H](C(=O)NCCCCCCN(C)C)[C@@H](c3ccc(O)cc3)N2C1=O")
0.0091
>>> value_measured("CCC1=C2CN(Cc3ccccc3Br)[C@@H]([C@@H](O)Cc3ccccc3)C2C=CCC1 (stereo partly drawn)")
-0.311
>>> value_measured("COc1ccc([Si](C)(C)[C@@H]2[C@@H](CCO)O[C@]3(C(=O)N(Cc4ccc(NC(=O)[C@H](C)O)cc4)c4ccccc43)[C@H]2C)cc1")
0.161
>>> value_measured("COc1cc([C@@H]2N[C@H](C(=O)O)Cc3c2[nH]c2ccccc32)cc(OC)c1OC")
-0.272
>>> value_measured("CO[C@H]1COC(=O)CC=C[C@@H](C)COC(=O)[C@@H](C)NC(=O)CC=C[C@@H]1C")
-1.84
>>> value_measured("C#CCNC(/C=C/c1ccccc1)CO (stereo not drawn)")
-0.565
>>> value_measured("CO[C@H]1COC(=O)[C@H](CCSC)NC(=O)CC=C[C@@H](C)COC(=O)[C@@H](OCc2ccccc2)C=C[C@@H]1C")
-1.41

Now for the compound whose composite z-score we want.
Quickly give me recorded composite z-score for [N-]=[N+]=NCc1ccccc1C[C@@]1(C(=O)N2CCOCC2)N=C(c2ccc(OCCCO)cc2)O[C@@H]1c1ccccc1N=[N+]=[N-]
1.31
